# Test system: NCI-H522
# Protocol Text: NCI tumour cell line growth inhibition, 48 h
Calls of active or inactive are those of the source. No stated cut-off is given here; in the data, active = GI50 up to about 1.1 µM and inactive = higher.
Reported Endpoint: GI50

# Compound, Observed Measurement
records = [
    ("O=C(CO)CC(=O)C(=O)Nc1cccc(C(F)(F)F)c1", "> 100 µM (inactive)"),
]

Let us move to another entry and its GI50.
Request: Look at this compound and give its reported GI50. COC(=O)C1CCC(=O)N1CN(C(C)=O)c1ccccc1Cl (stereo not drawn)
Result: > 100 µM (inactive)

====

# Tested on: OVCAR-4
# Protocol Text: NCI tumour cell line growth inhibition, 48 h
Active and inactive are the calls of the source. Cut-off read from the data, not from the text of the source: active = GI50 up to about 1.1 µM and inactive = higher.
Outcome field: choose from active, inactive

For orientation, consider the following solved cases.
# Compound, Group Label
measured = [
    ("O=C(CCCCCCCCCCc1ccccc1)C1=C(O)CCCC1=O", "inactive"),
    ("CCNc1nnc(-c2nsc3ccccc23)s1", "inactive"),
    ("O=C(CC1Sc2ccccc2NC1=O)Nc1cccc(Cl)c1 (stereo not drawn)", "inactive"),
    ("N=C(c1ccccc1)N(O)C1CCCCC1", "inactive"),
    ("O=C(Nc1sccc1S(=O)(=O)c1ccccc1)c1cccnc1", "inactive"),
]

Request: Per the records of this test, what outcome belongs to CN(C)CCNc1ccc(CO)c2oc3ccc(O)cc3c(=O)c12 ?
Result: inactive
